Cited source for all entries: patent US20250376511A1

Listed below: IC50, Wieslab Complement Pathway Assay (classical pathway, 1% NHS) values for each entry.
- System Name: T1, Human active C1s (Complement Technology) (human, UniProt P09871 16-688)
- T1 sequence: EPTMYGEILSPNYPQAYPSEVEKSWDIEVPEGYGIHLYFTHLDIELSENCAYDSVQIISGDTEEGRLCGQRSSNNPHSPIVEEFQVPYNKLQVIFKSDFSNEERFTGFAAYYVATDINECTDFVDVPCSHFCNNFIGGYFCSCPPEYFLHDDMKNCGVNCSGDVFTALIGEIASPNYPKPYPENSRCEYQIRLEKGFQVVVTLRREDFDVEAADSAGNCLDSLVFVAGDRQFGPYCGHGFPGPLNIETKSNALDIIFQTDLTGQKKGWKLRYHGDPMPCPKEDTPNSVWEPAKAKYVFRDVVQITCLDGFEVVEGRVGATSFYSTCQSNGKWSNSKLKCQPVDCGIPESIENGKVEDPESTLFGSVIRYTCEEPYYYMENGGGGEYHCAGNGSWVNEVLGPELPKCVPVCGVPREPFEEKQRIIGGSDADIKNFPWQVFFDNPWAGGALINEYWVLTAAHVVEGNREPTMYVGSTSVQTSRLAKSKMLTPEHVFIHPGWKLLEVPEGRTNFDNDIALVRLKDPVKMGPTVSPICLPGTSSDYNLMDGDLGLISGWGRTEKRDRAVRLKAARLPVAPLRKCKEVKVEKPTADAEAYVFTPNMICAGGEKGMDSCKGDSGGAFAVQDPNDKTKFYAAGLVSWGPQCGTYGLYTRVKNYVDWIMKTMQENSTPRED
- Assay Overview: cell-based or functional assay
The reply should contain only the number, in µg/mL.

For reference, reported IC50, Wieslab Complement Pathway Assay (classical pathway, 1% NHS) for aC1s_088 IgG1-dK (antibody, V domains shown) VH: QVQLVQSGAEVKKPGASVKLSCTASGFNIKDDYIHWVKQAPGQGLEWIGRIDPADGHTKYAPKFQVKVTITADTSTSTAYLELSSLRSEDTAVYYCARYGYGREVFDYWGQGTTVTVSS VL: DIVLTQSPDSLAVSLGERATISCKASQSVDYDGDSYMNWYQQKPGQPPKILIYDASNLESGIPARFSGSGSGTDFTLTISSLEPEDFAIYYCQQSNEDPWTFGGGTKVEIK stands at 0.84

get_value(item= SAR445088 (antibody, V domains shown, sulfated tyrosine (Y36) on the light chain, Bivalent monospecific anti-aC1s antibody; also called BIVV020; the wild-type antibody) VH: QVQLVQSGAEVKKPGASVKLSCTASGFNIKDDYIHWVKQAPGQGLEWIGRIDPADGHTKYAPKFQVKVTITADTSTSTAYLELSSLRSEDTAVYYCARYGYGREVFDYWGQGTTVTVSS VL: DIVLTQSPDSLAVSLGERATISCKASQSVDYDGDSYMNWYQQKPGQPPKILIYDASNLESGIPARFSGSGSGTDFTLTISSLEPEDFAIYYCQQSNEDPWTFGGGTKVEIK , readout=IC50, Wieslab Complement Pathway Assay (classical pathway, 1% NHS)) returns 1.07

Input aC1s_D32E IgG1-dK (antibody, V domains shown, Y36 sulfation: Yes) VH: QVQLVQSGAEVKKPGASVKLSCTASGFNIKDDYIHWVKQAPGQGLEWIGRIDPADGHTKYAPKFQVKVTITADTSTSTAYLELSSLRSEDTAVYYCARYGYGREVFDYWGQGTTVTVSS VL: DIVLTQSPDSLAVSLGERATISCKASQSVDYEGDSYMNWYQQKPGQPPKILIYDASNLESGIPARFSGSGSGTDFTLTISSLEPEDFAIYYCQQSNEDPWTFGGGTKVEIK . Output IC50, Wieslab Complement Pathway Assay (classical pathway, 1% NHS): 1.36
